Test system: MCF-10A
Experiment: Cell viability assay (CellTiter Glo), non-tumorigenic breast epithelial cell line MCF-10A
Assay type: cell-based
Details: Homo sapiens, 96 hours
Procedure: Cell viability assay was performed to assess the potency of the compounds in human cancer cell lines KP4 (pancreatic ductal adenocarcinoma), MiaPaCa-2 (pancreatic carcinoma), AsPC-1 (pancreatic adenocarcinoma, ascites), 143B (osteosarcoma), and SJSA-1 (osteosarcoma). […] After 96 hours of incubation, 50 μL of CellTiter Glo reagent (Promega) was added to each well and luminescence was measured after 10 minutes using EnVision (PerkinElmer). […] IC50, relative IC50, or % of top inhibition was calculated. […]
Answer each item with its documented pIC50.
For clarity, pIC50 is expressed as the negative log10 of concentration in mol/L.

Req: # input compound: COC(=O)[C@H]1Cc2c([nH]c3ccccc23)[C@H](c2ccc(NCC3CC3)cc2)N1C(=O)CCl ; wanted: its pIC50
Resp: 5.42

Req: # input compound: COC(=O)[C@H]1Cc2c([nH]c3ccccc23)[C@H](c2ccc(N[C@]34CC5C[C@H](C[C@H](C5)C3)C4)cc2)N1C(=O)CCl ; wanted: its pIC50
Resp: 6.39

Req: # input compound: COC(=O)[C@H]1Cc2c([nH]c3ccccc23)[C@H](c2ccc(C(=O)OCC3CCC3)cc2)N1C(=O)CCl ; wanted: its pIC50
Resp: 6.30

Req: # input compound: COC(=O)[C@H]1Cc2c([nH]c3ccccc23)[C@H](c2ccc(OC(=O)C(C)(C)C)cc2)N1C(=O)CCl ; wanted: its pIC50
Resp: 5.52

Req: # input compound: C=CCOC(=O)c1ccc([C@H]2c3[nH]c4ccccc4c3C[C@H](C(=O)OC)N2C(=O)CCl)cc1 ; wanted: its pIC50
Resp: 5.18

Req: # input compound: CN(C)C(=O)c1ccc([C@H]2c3[nH]c4ccccc4c3C[C@H](C(=O)N(C)C)N2C(=O)CCl)cc1 ; wanted: its pIC50
Resp: 4.71

Req: # input compound: COC(=O)[C@H]1Cc2c([nH]c3ccccc23)[C@H](c2ccc(C(=O)OC[C@]34C[C@H]5C[C@H](C[C@H](C5)C3)C4)cc2)N1C(=O)CCl ; wanted: its pIC50
Resp: 5.42
